protocol.text: Drug level in lung transplant recipient plasma at 400 mg, po every 12 hrs after 12 hrs by LS/MS analysis
Type: ADME, organism-based
condition.details: human, read-out: Drug uptake
recorded.endpoint: concentration at 12 h
Kindly format the answer as number then unit.

# input What value of concentration at 12 h has been recorded for this entry: CC[C@@H]([C@H](C)O)n1ncn(-c2ccc(N3CCN(c4ccc(OC[C@@H]5CO[C@@](Cn6cncn6)(c6ccc(F)cc6F)C5)cc4)CC3)cc2)c1=O
# output 930 ng/mL

* * *

protocol.text: Ratio of drug level in lung transplant human recipient epithelial lining fluid to plasma at 400 mg, po every 12 hrs after 8 hrs by LS/MS analysis
Format: ADME, organism-based
recorded.endpoint: Kp at 8 h
Just the number, please, no unit after it.

# input What value of Kp at 8 h has been recorded for this entry: CC[C@@H]([C@H](C)O)n1ncn(-c2ccc(N3CCN(c4ccc(OC[C@@H]5CO[C@@](Cn6cncn6)(c6ccc(F)cc6F)C5)cc4)CC3)cc2)c1=O [POSACONAZOLE]
# output 0.9

* * *

protocol.text: Ratio of drug level in lung transplant human recipient epithelial lining fluid to plasma at 400 mg, po every 12 hrs after 5 hrs by LS/MS analysis
Format: ADME, organism-based
recorded.endpoint: Kp at 5 h
Just the number, please, no unit after it.

# input What value of Kp at 5 h has been recorded for this entry: CC[C@@H]([C@H](C)O)n1ncn(-c2ccc(N3CCN(c4ccc(OC[C@@H]5CO[C@@](Cn6cncn6)(c6ccc(F)cc6F)C5)cc4)CC3)cc2)c1=O [POSACONAZOLE]
# output 0.57

* * *

protocol.text: Drug level in lung transplant recipient plasma at 400 mg, po every 12 hrs after 24 hrs by LS/MS analysis
Assay type: ADME, organism-based
condition.details: human, read-out: Drug uptake
recorded.endpoint: concentration at 24 h
Kindly format the answer as number then unit.

# input What value of concentration at 24 h has been recorded for this entry: CC[C@@H]([C@H](C)O)n1ncn(-c2ccc(N3CCN(c4ccc(OC[C@@H]5CO[C@@](Cn6cncn6)(c6ccc(F)cc6F)C5)cc4)CC3)cc2)c1=O [POSACONAZOLE]
# output 740 ng/mL

* * *

protocol.text: Cmax in lung transplant recipient plasma at 400 mg, po every 12 hrs after 12 hrs by LC/MS analysis
Type: ADME, organism-based
Design: dose 400 mg, route oral
condition.details: human
recorded.endpoint: Cmax (ng/mL)
# output: bare number, implied unit ng/mL

# input What value of Cmax has been recorded for this entry: CC[C@@H]([C@H](C)O)n1ncn(-c2ccc(N3CCN(c4ccc(OC[C@@H]5CO[C@@](Cn6cncn6)(c6ccc(F)cc6F)C5)cc4)CC3)cc2)c1=O [POSACONAZOLE]
# output 1300

* * *

protocol.text: Drug level in lung transplant recipient alveolar cell at 400 mg, po every 12 hrs after 24 hrs by LS/MS analysis
Type: ADME, organism-based, Pneumocyte
condition.details: human, alveolar cells, read-out: Drug uptake
recorded.endpoint: concentration at 24 h (ng/mL)
# output: bare number, implied unit ng/mL

# input What value of concentration at 24 h has been recorded for this entry: CC[C@@H]([C@H](C)O)n1ncn(-c2ccc(N3CCN(c4ccc(OC[C@@H]5CO[C@@](Cn6cncn6)(c6ccc(F)cc6F)C5)cc4)CC3)cc2)c1=O
# output 49600

* * *

protocol.text: Cmax in lung transplant recipient epithelial lining fluid at 400 mg, po every 12 hrs after 12 hrs by LC/MS analysis
Assay type: ADME, organism-based
Set-up: dose 400 mg, route oral
condition.details: human
recorded.endpoint: Cmax (ng/mL)
# output: bare number, implied unit ng/mL

# input What value of Cmax has been recorded for this entry: CC[C@@H]([C@H](C)O)n1ncn(-c2ccc(N3CCN(c4ccc(OC[C@@H]5CO[C@@](Cn6cncn6)(c6ccc(F)cc6F)C5)cc4)CC3)cc2)c1=O [POSACONAZOLE]
# output 1300
